Test system: RXF 393
Method description: NCI tumour cell line growth inhibition, 48 h
Active and inactive are the calls of the source. Cut-off read from the data, not from the text of the source: active = GI50 up to about 1.1 µM and inactive = higher.
Form entry, call: pick from 1 = active, -1 = inactive

- Molecule: "COC[C@@H](/N=C/c1ccc(OC)cc1)C(C)C"
  Label class: -1

What is the recorded call for this molecule in the test? CCOC(=O)NC(C(=O)OCC)(N1CCN(c2cc3c(cc2F)c(=O)c(C(=O)O)cn3CC)CC1)C(F)(F)F (stereo unspecified)
-1

Next record, please: `CCN(CC)c1c(C(=O)/C=C/c2ccc(OC)cc2)c(-c2ccccc2)nn(C)c1=O`
-1

Next record, please: `COc1ccc(-c2csc(Cc3nc4ccccc4c(=O)n3-c3ccc(Cl)cc3)n2)cc1`
-1

Next record, please: `CCOC(=O)NN(C(=O)OCC)C(=C(c1ccccc1)N1CCOCC1)N(NC(=O)OCC)C(=O)OCC`
-1

Next record, please: CC(N)/C(N)=N/O (stereo unspecified)
-1
